# measuredTarget: T1, Recombinant murine glypican-3 (aa 25-557), R&D Systems (murine, UniProt Q8CFZ4 25-557)
# T1 construct: also called muGPC3; Mu GPC3-His
# T1 sequence (Q8CFZ4 25-557 limits assumed, form in doubt): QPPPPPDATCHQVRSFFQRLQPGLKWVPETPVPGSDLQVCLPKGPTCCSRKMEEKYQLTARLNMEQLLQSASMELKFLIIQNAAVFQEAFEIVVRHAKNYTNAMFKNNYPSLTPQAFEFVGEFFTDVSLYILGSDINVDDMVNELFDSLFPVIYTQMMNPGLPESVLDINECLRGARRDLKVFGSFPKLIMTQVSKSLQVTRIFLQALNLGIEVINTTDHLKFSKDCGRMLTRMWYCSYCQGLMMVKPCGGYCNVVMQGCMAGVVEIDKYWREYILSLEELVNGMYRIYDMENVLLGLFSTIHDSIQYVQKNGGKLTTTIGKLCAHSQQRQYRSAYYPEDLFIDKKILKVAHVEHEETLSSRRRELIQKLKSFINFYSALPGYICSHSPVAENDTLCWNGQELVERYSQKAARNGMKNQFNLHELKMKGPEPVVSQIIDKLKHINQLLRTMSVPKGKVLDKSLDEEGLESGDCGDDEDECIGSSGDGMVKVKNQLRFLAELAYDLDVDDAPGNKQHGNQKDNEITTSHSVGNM
# experimentNotes: SPR, Biacore T100, GPC3-His immobilised, 1:1 fit
In this section we review reported kon values for a set of binders.
Kindly answer with a numeric value in M⁻¹ s⁻¹, unit omitted.

binder	measuredParameter	endpointValue
ADX_6077_F02 DG→DL mutant, alkylated (designed binder, C-terminal cysteine alkylated, also called P1-055671) GVSDVPRDLEVVAATPTSLLISWSDDYHAHRYYRITYGETGGNSPVQEFTVPGEHVTATISGLKPGVDYTITVYAVTYDLEKAATDWSISINYRTPC	kon	100000
ADX_6077_F02 DG→DA mutant, alkylated (designed binder, C-terminal cysteine alkylated, also called P1-055660; PI-055660) GVSDVPRDLEVVAATPTSLLISWSDDYHAHRYYRITYGETGGNSPVQEFTVPGEHVTATISGLKPGVDYTITVYAVTYDAEKAATDWSISINYRTPC	kon	100000
ADX_6077_F02 DG→DS mutant, alkylated (designed binder, C-terminal cysteine alkylated, also called P1-055667) GVSDVPRDLEVVAATPTSLLISWSDDYHAHRYYRITYGETGGNSPVQEFTVPGEHVTATISGLKPGVDYTITVYAVTYDSEKAATDWSISINYRTPC	kon	100000

Problem: Name the reported kon value associated with the binder ADX_6077_F02 alkylated (designed binder, C-terminal cysteine (of PC) alkylated with iodoacetamide, also called alkylated (capped) Adnectin; alkylated parent) MGVSDVPRDLEVVAATPTSLLISWSDDYHAHRYYRITYGETGGNSPVQEFTVPGEHVTATISGLKPGVDYTITVYAVTYDGEKAATDWSISINYRTPCHHHHHH
Result: 130000
